- assayProtocol: Toxicity liver stage against HepG2, at 10uM
- Assay type: cell-based
- Set-up: test concentration 10 uM, cell line HepG2-A16-CD81EGFP
- cond: human, HepG2-A16-CD81EGFP cells; read-out: INHIBITION
observedProperty: cytotoxicity at 10 µM

molecule | measuredValue
Cc1nc(C2CCCN(C(=O)c3cccc4c3OCO4)C2)sc1C (configuration not stated) | -8.72%
CCn1nc(C)c2c1cnn2CCNS(C)(=O)=O | 7.55%
Cc1nc(CN2CCN(C(=O)CCc3cccnc3)CC2)no1 | -8.64%
CO[C@H]1CCN(Cc2cccs2)[C@@H]2CN(Cc3ccncc3)C[C@H]12 | 2.31%
Cc1cc(CN2CCN(C(=O)NC(C)c3ccc(C)o3)CC2)on1 (configuration not stated) | -8.72%
Cn1c(CN2CCCC2)nnc1C1CCCN(C(=O)CN2CCCC2)C1 (configuration not stated) | -1.9%
Cc1nn(C)c(N(C)C)c1CNCc1ccc(Cn2cccn2)cc1 | 3.73%
CCc1sc(C(=O)Nc2cnn(CC(N)=O)c2)cc1C | -2.68%
Cc1nc(C(C)(C)NCc2ncc(C3CC3)o2)sc1C | 3.57%
COCCn1cnc2ccc(NC(=O)C3CC3)cc2c1=O | -7.89%
Cc1cc(C)n2c(CNCCNc3ccccc3)cnc2n1 | -144%
Cn1ncc2c1C(COCC1CC1)CN(Cc1ccsc1)C2 (configuration not stated) | -1.11%

###

- assayProtocol: Toxicity liver stage against HepG2, at 10uM
- Type: cell-based
- Parameters: test concentration 10 uM, cell line HepG2-A16-CD81EGFP
- cond: human, HepG2-A16-CD81EGFP cells; read-out: INHIBITION
cytotoxicity at 10 µM for assorted compounds

compound | cytotoxicity at 10 µM, %
COC(=O)CCCNC(=O)N1CCc2c(F)ccc(F)c2C1 | -11.2
COc1ccc(N2CCC(N(C)C(=O)C(C)SC)CC2)cc1 (stereo unspecified) | 1.69
Cc1cc(C)c(CNC(=O)N2CCC(N3CCNC3=O)CC2)c(=O)[nH]1 | 4.16
Cc1cc(C(N)=O)ccc1NC(=O)c1nc(N2CCCCC2)ncc1Cl | -13.9
Cc1cnn(CCNCC(=O)NC(c2ccccc2)c2ccccc2)c1 | -5.73
CC1(C)[C@H](Cc2cc(CN3CCCCC3)on2)C[C@@H]1NC(=O)C1CC1 | -8.17
Cc1cc(C)nc(Nc2nccnc2C2CCCN(C(CO)CO)C2)n1 (stereo unspecified) | 0.216
Cc1ccc2c(c1)C1(CCNCC1)CC2NC(C)C (stereo unspecified) | -9.73
Cc1cccc2nc(CSCC(=O)Nc3nnc(C(C)C)s3)cc(=O)n12 | -3.95
CC(C)c1nnc2n1CCN(C(=O)c1ccccc1OCC1CC1)C2 | 10.5
CC(C)Nc1ncc(CN2C[C@@H](CN3CCC(O)CC3)[C@@H](CO)C2)cn1 | 18.5

###

- assayProtocol: Toxicity liver stage against HepG2, at 10uM
- Assay type: cell-based
- Parameters: test concentration 10 uM, cell line HepG2-A16-CD81EGFP
- cond: human, HepG2-A16-CD81EGFP cells; read-out: INHIBITION
cytotoxicity at 10 µM for assorted molecules

molecule | measureUnit | cytotoxicity at 10 µM
CCn1ccnc1CN1CCN(C(C)C(=O)N2CCCC2)CC1 (centres undefined) | % | -3.97
COc1cccc(-c2noc3c2CN(c2ncnc4c2CCC4)CC3)c1 | % | 51
COc1cc(C)c(CN2CCC3(CC2)C(C(=O)O)CC(=O)N3C)cc1C (centres undefined) | % | -8.58
CCCC1c2cccn2CCN1C(=O)c1cc(CC)no1 (centres undefined) | % | -14.9
COCC1CN(Cc2ccc(F)cc2)Cc2nnn(CC3CC3)c21 (centres undefined) | % | 3.4
O=C(CCC(=O)N1CCOCC1)NCc1cccnc1-n1cccn1 | % | -3.65
Cn1ccc(NCc2cc3cc(F)ccc3o2)n1 | % | -12.4
O=C(c1ncccc1O)N1CCN(Cc2ccco2)C(CCO)C1 (centres undefined) | % | 3.89
Cc1nc(C2CCNCC2)cc(N(C)Cc2cc3cc(F)ccc3[nH]2)n1 | % | -10.7
COc1ccccc1-c1ncc(CN2C[C@H](O)[C@@H](N3CCCC3)C2)s1 | % | -6.34
O=C(NC1CCCCC1)c1nnc2ccc(N3CCOCC3)cc2n1 | % | 5.97
CCOCCNC(=O)[C@@H]1CCCN1c1nccc(Nc2ccccc2)n1 | % | 2.66
Cc1cc(C(F)(F)F)nn1CC(C)C(=O)NC(C)C (centres undefined) | % | 10
CCc1ccc(CN2CCc3ncnc(-c4cccnc4)c3CC2)o1 | % | 12.8
COC(=O)c1ccc(C(=O)NS(=O)(=O)c2cncc(Br)c2)cc1 | % | 9.95
CC1=N[C@@]2(CC[C@@H]3CN(CC(C)C)C[C@@H]32)C(=O)N1C | % | 3.5
Cc1ccc2oc(=O)n(CC(=O)N3CCC4(CC3)CN(C)C(=O)O4)c2c1 | % | -13.8
OC(c1cccs1)C1CCN(c2ncccn2)CC1 (centres undefined) | % | -52.5
CC(=O)Nc1nc(CN2CCn3c(nnc3C(C)C)C2)cs1 | % | -2.17
Cc1nc(CN2CCCC(NCc3cccc(C(N)=O)c3)C2)no1 (centres undefined) | % | -14.5
COc1cccc2c1ccn2CCC(=O)NCCCC(=O)O | % | 9.64
NC(=O)CSCC(=O)N1CCc2cc(Cl)cc(Cl)c2C1 | % | 27.9
CCNc1cc2c(nn1)CCN(C(=O)CC1CCCC1)C2 | % | -3.87
CC(C)(C)c1nccc(N2CCC(OCCN3CCCCC3)C2)n1 (centres undefined) | % | -53.7
